meta.source: paper PMC6249113

Biological target: GluN1/2A receptors (Rattus norvegicus, UniProt P35439+Q00959)
Sequence (Q00959 23-1464, other chains not shown): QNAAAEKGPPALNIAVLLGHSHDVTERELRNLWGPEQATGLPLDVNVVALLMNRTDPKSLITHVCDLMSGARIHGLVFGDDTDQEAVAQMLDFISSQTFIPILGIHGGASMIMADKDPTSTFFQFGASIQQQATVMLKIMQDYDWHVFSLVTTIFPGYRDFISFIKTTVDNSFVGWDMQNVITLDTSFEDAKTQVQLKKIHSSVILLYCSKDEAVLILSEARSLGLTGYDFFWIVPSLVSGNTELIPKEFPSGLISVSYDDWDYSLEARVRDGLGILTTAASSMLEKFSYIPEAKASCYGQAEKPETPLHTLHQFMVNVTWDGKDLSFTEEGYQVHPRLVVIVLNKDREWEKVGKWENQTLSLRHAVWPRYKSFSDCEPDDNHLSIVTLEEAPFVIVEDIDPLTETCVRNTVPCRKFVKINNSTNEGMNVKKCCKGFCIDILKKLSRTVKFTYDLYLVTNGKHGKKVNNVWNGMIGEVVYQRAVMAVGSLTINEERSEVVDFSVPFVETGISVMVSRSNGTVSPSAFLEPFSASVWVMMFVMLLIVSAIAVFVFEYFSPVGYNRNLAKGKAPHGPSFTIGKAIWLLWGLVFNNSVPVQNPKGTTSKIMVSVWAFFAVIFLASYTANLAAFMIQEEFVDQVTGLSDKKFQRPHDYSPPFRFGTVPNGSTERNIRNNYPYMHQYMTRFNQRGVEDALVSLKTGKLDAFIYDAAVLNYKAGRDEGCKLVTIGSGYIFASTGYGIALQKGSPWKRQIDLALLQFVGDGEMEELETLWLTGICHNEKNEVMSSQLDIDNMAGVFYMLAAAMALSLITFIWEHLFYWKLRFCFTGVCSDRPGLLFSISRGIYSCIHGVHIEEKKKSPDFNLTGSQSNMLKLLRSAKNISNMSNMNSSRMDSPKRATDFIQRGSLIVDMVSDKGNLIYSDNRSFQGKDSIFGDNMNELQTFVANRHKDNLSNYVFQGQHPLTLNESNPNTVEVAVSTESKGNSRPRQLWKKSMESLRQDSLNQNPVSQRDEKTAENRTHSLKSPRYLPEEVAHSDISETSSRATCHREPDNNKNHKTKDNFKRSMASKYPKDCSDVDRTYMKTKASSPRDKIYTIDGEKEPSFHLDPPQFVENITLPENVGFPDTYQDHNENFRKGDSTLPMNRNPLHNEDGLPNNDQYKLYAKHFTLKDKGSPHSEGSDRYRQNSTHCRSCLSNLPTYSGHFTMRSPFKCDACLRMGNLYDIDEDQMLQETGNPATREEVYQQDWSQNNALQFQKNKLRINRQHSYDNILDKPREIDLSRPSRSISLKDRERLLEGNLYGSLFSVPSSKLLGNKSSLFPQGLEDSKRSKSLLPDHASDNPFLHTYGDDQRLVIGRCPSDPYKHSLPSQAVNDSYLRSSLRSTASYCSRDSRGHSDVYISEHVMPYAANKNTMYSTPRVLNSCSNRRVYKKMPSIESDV
endpoint_label: pIC50
// pIC50 here means minus log10 of the molar concentration (mol/L)

Provide measured pIC50 on GluN1/2A receptors (Rattus norvegicus, UniProt P35439+Q00959) for CC12CC3CC(C)(C1)CC(N)(C3)C2 [Compound 5, memantine, reference compound] please. 5.74
